test_system: KCNT1 (KNa1.1, Slack) (Homo sapiens, UniProt Q5JUK3)
Sequence (Q5JUK3 whole entry): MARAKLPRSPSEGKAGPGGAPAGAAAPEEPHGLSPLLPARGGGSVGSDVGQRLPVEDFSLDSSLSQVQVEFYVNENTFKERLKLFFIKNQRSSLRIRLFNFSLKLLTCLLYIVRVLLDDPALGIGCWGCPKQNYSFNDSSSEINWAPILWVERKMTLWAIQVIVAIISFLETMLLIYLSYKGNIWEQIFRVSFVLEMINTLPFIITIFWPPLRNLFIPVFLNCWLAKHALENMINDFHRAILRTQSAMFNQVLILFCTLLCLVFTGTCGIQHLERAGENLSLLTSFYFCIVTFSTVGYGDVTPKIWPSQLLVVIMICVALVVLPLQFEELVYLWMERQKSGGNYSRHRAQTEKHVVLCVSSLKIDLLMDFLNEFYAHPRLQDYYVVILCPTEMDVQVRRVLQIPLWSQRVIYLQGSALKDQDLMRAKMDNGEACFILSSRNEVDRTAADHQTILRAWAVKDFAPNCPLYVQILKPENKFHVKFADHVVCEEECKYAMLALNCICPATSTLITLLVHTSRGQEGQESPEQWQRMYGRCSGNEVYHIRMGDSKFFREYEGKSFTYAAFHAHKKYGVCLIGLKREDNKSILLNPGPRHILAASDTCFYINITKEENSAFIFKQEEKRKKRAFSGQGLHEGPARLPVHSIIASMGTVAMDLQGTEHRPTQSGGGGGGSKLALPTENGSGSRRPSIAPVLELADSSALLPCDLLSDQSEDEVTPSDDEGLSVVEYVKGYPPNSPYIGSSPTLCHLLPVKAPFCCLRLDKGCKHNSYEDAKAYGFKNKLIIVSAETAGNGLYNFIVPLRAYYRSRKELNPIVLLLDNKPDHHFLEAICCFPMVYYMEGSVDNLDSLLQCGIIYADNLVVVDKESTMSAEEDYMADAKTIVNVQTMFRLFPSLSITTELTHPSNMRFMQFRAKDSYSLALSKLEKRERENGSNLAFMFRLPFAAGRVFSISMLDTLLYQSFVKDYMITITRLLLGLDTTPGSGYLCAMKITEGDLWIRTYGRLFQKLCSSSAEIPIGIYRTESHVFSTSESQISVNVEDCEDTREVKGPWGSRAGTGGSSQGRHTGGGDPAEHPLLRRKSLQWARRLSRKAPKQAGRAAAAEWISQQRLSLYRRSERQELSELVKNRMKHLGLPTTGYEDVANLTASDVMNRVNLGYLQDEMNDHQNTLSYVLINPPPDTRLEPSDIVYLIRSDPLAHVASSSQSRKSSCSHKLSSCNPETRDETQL
test_description: KCNT1-WT-Basal patch clamp assay (SyncroPatch 384PE, HEK-TREX inducible cell line)
experimental_setup: tetracycline inducible HEK-TREX cells; perforated patch; holding -80 mV, 100 ms step to 0 mV; room temperature; read-out: KCNT1 WB IC50
IC50: recorded values
measured_endpoint: IC50

1) Cc1cccc(O)c1C(=O)N[C@@H]1CCc2cc(Cl)ccc21 [Compound III-17]    ≥ 20 µM
2) CO[C@H]1CCN(S(=O)(=O)c2ccc(C(=O)N[C@@H]3CCc4cc(Cl)ccc43)s2)C1 [Compound I-43]    ≤ 1 µM
3) NC(=O)c1ccc(C(=O)N[C@@H]2CCc3cc(Cl)ccc32)cc1 [Compound II-26]    1 to 20 µM
4) CO[C@@H]1CCN(S(=O)(=O)c2ccc(C(=O)N[C@@H]3CCc4cc(Cl)ccc43)s2)C1 [Compound I-46]    ≤ 1 µM
5) NS(=O)(=O)c1ccc(C(=O)N[C@@H]2CCc3cc(Cl)ccc32)o1 [Compound I-3]    1 to 20 µM
6) CS(=O)(=O)Cc1ccc(C(=O)NC2CCc3cc(Cl)ccc32)cc1 (single isomer, unassigned) [Compound II-5]    ≥ 20 µM
7) CCS(=O)(=O)c1ccc(C(=O)N[C@@H]2CCc3cc(Cl)ccc32)s1 [Compound I-34]    ≤ 1 µM
8) O=C(N[C@@H]1CCc2cc(Cl)ccc21)c1cccc(F)c1O [Compound III-9]    ≤ 1 µM
9) CNS(=O)(=O)c1ccc(C(=O)N[C@@H]2CCc3cc(Cl)ccc32)s1 [Compound I-16]    ≤ 1 µM
10) Cc1cc(S(N)(=O)=O)sc1C(=O)N[C@@H]1CCc2cc(Cl)ccc21 [Compound I-10]    1 to 20 µM
11) CN(C)CCN(c1ccc(C(=O)N[C@@H]2CCc3cc(Cl)ccc32)cc1)S(C)(=O)=O [Compound II-44]    1 to 20 µM
12) CN(c1ccc(C(=O)NC2CCc3cc(Cl)ccc32)cc1)S(C)(=O)=O (single isomer, unassigned) [Compound II-1]    ≥ 20 µM
13) CS(=O)(=O)c1ccc(C(=O)N[C@@H]2CCc3cc(Cl)ccc32)cc1 [Compound II-22]    ≤ 1 µM
14) Cc1cc(S(C)(=O)=O)ccc1C(=O)N[C@@H]1CCc2cc(Cl)ccc21 [Compound II-33]    ≥ 20 µM
15) Cn1nc(C2CC2)cc1C(=O)N[C@@H]1CCc2cc(Cl)ccc21 [Compound I-2]    1 to 20 µM
16) COCCS(=O)(=O)c1ccc(C(=O)N[C@@H]2CCc3cc(Cl)ccc32)s1 [Compound I-47]    ≤ 1 µM
17) NS(=O)(=O)c1ccc(C(=O)N[C@@H]2CCc3cc(Cl)ccc32)cc1 [Compound II-25]    ≤ 1 µM
